Molecular target: UniProtKB P25089
Sequence (P25089 whole entry): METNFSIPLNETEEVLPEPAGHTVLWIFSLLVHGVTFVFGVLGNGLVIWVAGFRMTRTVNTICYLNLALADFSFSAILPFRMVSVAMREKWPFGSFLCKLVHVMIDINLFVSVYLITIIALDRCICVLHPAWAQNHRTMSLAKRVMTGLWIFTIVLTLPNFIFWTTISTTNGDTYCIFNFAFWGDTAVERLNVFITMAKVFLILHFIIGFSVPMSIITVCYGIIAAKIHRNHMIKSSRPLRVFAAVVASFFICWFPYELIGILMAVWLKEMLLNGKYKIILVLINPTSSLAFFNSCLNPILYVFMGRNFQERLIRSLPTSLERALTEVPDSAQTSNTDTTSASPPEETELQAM
Experiment: Intracellular calcium measurements (FLIPR), agonistic activity in HEK293-hFPRL2-Gα16 cells
Conditions: Fluo-4 calcium FLIPR, normalized to GLY14-Humanin 100 nM
pEC50: −log10 of the molar value.
pEC50 by entry:
Measure Name: pEC50

> print(dat)
                                   molecule  experimental.result
1  O=C(NCCCCN1CCCC1)[C@H]1[C@H](C(=O)Nc2nnc(C(F)(F)F)s2)[C@@H]2C=C[C@H]1C21CC1 (racemic)                 6.78
2  CC(C)(C)c1csc(NC(=O)[C@H]2[C@H](C(=O)NCCCCN3CCCC3)[C@H]3C=C[C@@H]2C32CC2)n1 (racemic)                 6.82
3  CC(C)(C)OC(=O)NCc1cccc(CNC(=O)[C@H]2[C@H](C(=O)Nc3ccc(Br)cc3)[C@@H]3C=C[C@H]2C32CC2)c1 (racemic)                 5.65
4  Cc1ccc(NC(=O)C2C(C(=O)NCCCCN3CCCC3)C3C=CC2C32CC2)cn1 (stereo not shown)                 5.75
5  O=C(NC1CNC1)[C@H]1[C@H](C(=O)Nc2ncc(Br)s2)[C@@H]2CC[C@H]1C21CC1                 5.64
6  CC(C)(C)c1cc(NC(=O)[C@H]2[C@H](C(=O)NCCCCN3CCCC3)[C@H]3C=C[C@@H]2C32CC2)no1 (racemic)                 6.19
7  COc1ccc(CCNC(=O)[C@H]2[C@H](C(=O)NCCCCN3CCCC3)[C@H]3C=C[C@@H]2C32CC2)cc1OC (racemic)                 6.38

----------
Target: human ALX receptor (Homo sapiens, UniProt P25090)
Sequence (P25090 whole entry): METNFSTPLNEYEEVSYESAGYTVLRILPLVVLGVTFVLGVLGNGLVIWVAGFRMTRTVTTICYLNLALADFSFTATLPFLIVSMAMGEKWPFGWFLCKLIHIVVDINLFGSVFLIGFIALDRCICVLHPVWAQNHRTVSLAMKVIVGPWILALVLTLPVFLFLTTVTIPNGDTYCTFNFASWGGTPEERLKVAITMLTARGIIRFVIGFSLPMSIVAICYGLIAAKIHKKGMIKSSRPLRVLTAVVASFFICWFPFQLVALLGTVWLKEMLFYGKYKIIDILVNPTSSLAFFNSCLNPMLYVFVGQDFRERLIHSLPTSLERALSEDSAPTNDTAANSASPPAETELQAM
Test: Intracellular calcium measurements (FLIPR), agonistic activity in HEK293-hALXR-Gα16 cells
Conditions: Fluo-4 calcium FLIPR, normalized to WKYMVm 10 nM
Parameter class (string): assigned from measured EC50. Ranges: low interval: < 0.01 µM; middle interval: ≥ 0.01 µM and < 0.2 µM; high interval: ≥ 0.2 µM

> print(dat)
                                    compound       class.name
 1  O=C(NCCCO)[C@H]1[C@H](C(=O)Nc2ccc(Br)cc2)[C@@H]2CC[C@H]1C21CC1 (racemic) [Example 107]     low interval
 2  COCCN(CCOC)C(=O)C1C(C(=O)Nc2ccc(Br)cc2)C2C=CC1C21CC1 (racemic) [Example 35]     low interval
 3  O=C(NCCCCO)[C@H]1[C@H](C(=O)Nc2ncc(Br)s2)[C@@H]2CC[C@H]1C21CC1 [Example 405]  middle interval
 4  NC(=O)CCNC(=O)[C@H]1[C@H](C(=O)Nc2ncc(Br)s2)[C@@H]2CC[C@H]1C21CC1 [Example 239]  middle interval
 5  O=C(Nc1ccc(Br)cc1)C1C(C(=O)NC2CCNC2)C2C=CC1C21CC1 (mixture of isomers) [Example 9]     low interval
 6  NC(=O)CCNC(=O)[C@H]1[C@H](C(=O)NCc2cnc(Br)s2)[C@@H]2C=C[C@H]1C21CC1 [Example 283]    high interval
 7  CC(=O)c1csc(CNC(=O)[C@H]2[C@H](C(=O)NCCCN3CCN(C)CC3)[C@H]3C=C[C@@H]2C32CC2)n1 (racemic) [Example 268]    high interval
 8  O=C(NCCCCN1CCCC1)[C@H]1[C@H](C(=O)NCc2ccc(Cl)cc2)[C@@H]2C=C[C@H]1C21CC1 (racemic) [Example 230]  middle interval
 9  CCCCCCN(C)C(=O)[C@H]1[C@H](C(=O)Nc2ccc(Br)cc2)[C@@H]2C=C[C@H]1C21CC1 (racemic) [Example 84]  middle interval
10  COCCC(=O)NC[C@H]1[C@H](C(=O)Nc2ccc(Br)cc2)[C@@H]2C=C[C@H]1C21CC1 (racemic) [Example 163]  middle interval
11  O=C(NCCCN1CCCC1)[C@H]1[C@H](C(=O)Nc2ncc(Br)s2)[C@@H]2C=C[C@H]1C21CC1 (racemic) [Example 237]    high interval
12  O=C(NCCCCN1CCCC1)[C@H]1[C@H](C(=O)NCc2cc(F)c(Br)c(F)c2)[C@@H]2C=C[C@H]1C21CC1 [Example 328]  middle interval
13  O=C(NCCCCN1CCC(F)(F)C1)[C@H]1[C@H](C(=O)Nc2ccc(Br)cc2)[C@@H]2C=C[C@H]1C21CC1 [Example 401]     low interval
14  CC(C)(C)OC(=O)N1CCCC(CCNC(=O)C2C(C(=O)Nc3ccc(Br)cc3)C3C=CC2C32CC2)C1 (mixture of isomers) [Example 99]    high interval
15  NC(=O)CCNC(=O)[C@H]1[C@H](C(=O)NCc2ccc(Br)cc2)[C@@H]2C=C[C@H]1C21CC1 [Example 241]    high interval
16  NCCCNC(=O)[C@H]1[C@H](C(=O)Nc2ccc(Br)cc2)[C@@H]2C=C[C@H]1C21CC1 (racemic) [Example 16]     low interval
17  CC(C)(C)OC(=O)CCCNC(=O)[C@H]1[C@H](C(=O)Nc2ccc(Br)cc2)[C@@H]2C=C[C@H]1C21CC1 (racemic) [Example 89]  middle interval

----------
Target: UniProt P25089
Assay: Intracellular calcium measurements (FLIPR), agonistic activity in HEK293-hFPRL2-Gα16 cells
Conditions: Fluo-4 calcium FLIPR, normalized to GLY14-Humanin 100 nM
Label class 1 when EC50 is strictly below 0.5 µM; otherwise label class 0.

> print(dat)
                                    compound  class.name
 1  O=C(NCCCCN1CCCC1)[C@H]1[C@H](C(=O)Nc2ccc(Br)cc2)[C@@H]2CC[C@H]1C21CC1     class 1
 2  NCCCCCNC(=O)[C@H]1[C@H](C(=O)NCc2ccc(Br)cc2F)[C@@H]2C=C[C@H]1C21CC1     class 1
 3  CC(=O)c1csc(CNC(=O)[C@H]2[C@H](C(=O)NCCCN)[C@H]3C=C[C@@H]2C32CC2)n1 (racemic)     class 1
 4  O=C(NCCCCN1CCCC1)[C@H]1[C@H](C(=O)Nc2ccc(Br)nc2)[C@@H]2CC[C@H]1C21CC1     class 1
 5  CC(=O)c1nc(CNC(=O)[C@H]2[C@H](C(=O)NCCCCN3CCCC3)[C@H]3C=C[C@@H]2C32CC2)co1 (racemic)     class 1
 6  O=C(NCC1COCCO1)C1C(C(=O)Nc2ccc(Br)cc2)C2C=CC1C21CC1 (mixture of isomers)     class 0
 7  CC(C)(C)C1CCC(NC(=O)C2C(C(=O)NCCCCN3CCCC3)C3C=CC2C32CC2)CC1 (stereo not shown)     class 1
 8  O=C(NCCCCN1CCCC1)[C@H]1[C@H](C(=O)Nc2nc(Br)cs2)[C@@H]2C=C[C@H]1C21CC1     class 1
 9  NC(=O)CCNC(=O)[C@H]1[C@H](C(=O)Nc2ccc(Br)nc2)[C@@H]2C=C[C@H]1C21CC1     class 0
10  CNC(=O)C(NC(=O)C1C(C(=O)Nc2ccc(Br)cc2)C2C=CC1C21CC1)C(C)(C)C (stereo not shown)     class 0
11  NCCCCNC(=O)[C@H]1[C@H](C(=O)Nc2ncc(Br)s2)[C@@H]2CC[C@H]1C21CC1     class 0
12  CC(C)(C)OC(=O)NCCCNC(=O)[C@H]1[C@H](C(=O)Nc2ccc(Br)cc2)[C@@H]2C=C[C@H]1C21CC1 (racemic)     class 0
13  Cn1c(CCNC(=O)[C@H]2[C@H](C(=O)NCCCCN3CCCC3)[C@H]3C=C[C@@H]2C32CC2)nc2ccccc21 (racemic)     class 0
14  O=C(NC1CCN(Cc2ccccc2)CC1)[C@H]1[C@H](C(=O)Nc2ccc(Br)cc2)[C@@H]2C=C[C@H]1C21CC1 (racemic)     class 0
15  CN(C)CCCCCNC(=O)[C@H]1[C@H](C(=O)Nc2ccc(Br)cc2)[C@@H]2C=C[C@H]1C21CC1 (racemic)     class 0
16  Cc1cc(C)cc(CNC(=O)[C@H]2[C@H](C(=O)NCCCCN3CCCC3)[C@H]3C=C[C@@H]2C32CC2)c1 (racemic)     class 1
17  CN(C)CCCCCNC(=O)[C@H]1[C@H](C(=O)Nc2ccc(Br)cc2)[C@@H]2CC[C@H]1C21CC1 (racemic)     class 0
18  CCC(CC)CNC(=O)[C@H]1[C@H](C(=O)NCCCCN2CCCC2)[C@H]2C=C[C@@H]1C21CC1 (racemic)     class 0
